# TARGET UNDER TEST: TNK1 (human)
# METHOD DESCRIPTION: KINOMEscan competition binding
# MEASUREMENT SETUP: compound 10.0 µM
Label 1 (yes) when kinase still bound, per cent of control is strictly below 30%; otherwise label 0 (no).

# COMPOUND, TARGET UNDER TEST, ASSIGNED CLASS
rows = [
    ("COc1cc(C(=O)NC2CCN(C)CC2)ccc1Nc1ncc2c(n1)N(C1CCCC1)[C@@H]1CCC[C@@H]1C(=O)N2C", "TNK1 (human)", "1 (yes)"),
    ("CS(=O)(=O)Nc1ccc(-c2cncc(/C=C3\\SC(=N)NC3=O)c2)cc1", "TNK1 (human)", "1 (yes)"),
    ("COc1cc(N2CCC(O)CC2)ccc1Nc1ncc2c(n1)N(C1CCCC1)CCC(=O)N2C", "TNK1 (human)", "1 (yes)"),
    ("CN1C(=O)[C@H]2CCC[C@H]2N(C2CCCC2)c2nc(Nc3ccc(C(N)=O)cc3)ncc21", "TNK1 (human)", "1 (yes)"),
    ("COc1cc(N2CCC(O)CC2)ccc1Nc1ncc2c(n1)N(C)c1ccccc1C(=O)N2C", "TNK1 (human)", "1 (yes)"),
    ("O=C1NC(=O)/C(=C/c2c[nH]c(=O)c(-c3ccc(N4CCNCC4)nc3)c2)S1", "TNK1 (human)", "0 (no)"),
    ("COc1cc(C(=O)NC2CCN(C)CC2)ccc1Nc1ncc2c(n1)N(C1CCCC1)CCC(=O)N2C", "TNK1 (human)", "1 (yes)"),
    ("COc1cc(N2CCC(C(N)=O)CC2)ccc1Nc1ncc2c(n1)N(C1CCCC1)[C@@H]1CCC[C@@H]1C(=O)N2C", "TNK1 (human)", "1 (yes)"),
    ("COc1cc(N2CCN(C)CC2)ccc1Nc1ncc2c(n1)N(C)c1ccccc1C(=O)N2C", "TNK1 (human)", "1 (yes)"),
    ("N=C1NC(=O)/C(=C/c2ccc(-c3csc4ccccc34)o2)S1", "TNK1 (human)", "0 (no)"),
    ("COc1cc(C(=O)NC2CCC(O)CC2)ccc1Nc1ncc2c(n1)N(C1CCCC1)[C@@H]1CCC[C@@H]1C(=O)N2C (stereo partly drawn)", "TNK1 (human)", "1 (yes)"),
    ("COc1cc(C(=O)NC2CCN(C)CC2)ccc1Nc1ncc2c(n1)N(C1CCCC1)CC(C)C(=O)N2C (stereo not drawn)", "TNK1 (human)", "1 (yes)"),
    ("COc1cc(N2CCN(C)CC2)ccc1Nc1ncc2c(n1)N(C)c1ccccc1C(=O)N2", "TNK1 (human)", "1 (yes)"),
]

---

# TARGET UNDER TEST: TXK (human)
# METHOD DESCRIPTION: KINOMEscan competition binding
# MEASUREMENT SETUP: compound 10.0 µM
Label true when kinase still bound, per cent of control is strictly below 80%; otherwise label false.

# RECORD SMILES, ASSIGNED CLASS
measured = [
    ("CN1CCN(c2ccc(C(=O)Nc3ncc4c(n3)N(C)c3ccccc3C(=O)N4C)cc2)CC1", "false"),
    ("CN1C(=O)c2ccccc2N(C)c2nc(NS(=O)(=O)c3ccc(N)cc3)ncc21", "false"),
    ("COc1cc(N2CCN(C)CC2)ccc1Nc1ncc2c(n1)N(C)c1sccc1C(=O)N2C", "true"),
    ("CN1C(=O)c2ccccc2N(C)c2nc(Nc3ccc(N4CCC(O)CC4)cc3)ncc21", "false"),
    ("N=C1NC(=O)/C(=C/c2ccc(-c3cncc4ccccc34)o2)S1", "true"),
    ("CN1C(=O)[C@H]2CCC[C@H]2N(C2CCCC2)c2nc(Nc3ccc4ncccc4c3)ncc21", "true"),
    ("COc1cc(N2CCC(O)CC2)ccc1Nc1ncc2c(n1)N1CCc3cccc(c31)C(=O)N2C", "false"),
    ("COc1cc(N2CCN(C)CC2)ccc1Nc1ncc2c(n1)N(C)c1ccccc1N(C)C2=O", "false"),
]
